Recorded SKW3 WT vs KO ratio, anti-mFc-647 values for a group of binders are listed next.
measuredTarget: T1, human CD4 on cells (SKW3 cells; human PBMCs) (human, UniProt P01730 26-458)
T1 construct: whole, on cells; SKW3 CD4 knockout cells served as the negative cell line in the primary screen; also called hCD4; huCD4
assay: FACS primary screen, hybridoma supernatant, SKW3 vs SKW3 CD4 KO cells;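 further: flow cytometry on mixed SKW3 and dye-labeled SKW3 CD4 knockout cells after 30 min at 4 °C with supernatant, ratio of binding signal on parental versus knockout cells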

Here's what some known entries look like.
- binder: "75110_06C16A (antibody, V domains shown, Tested as non-clonal AlivaMab Mouse Kappa hybridoma supernatant (detected with anti-mouse Fc gamma and anti-human kappa)) VH: QVQLQESGPGLVTPSETLSLSCTVSGGSISDYYWSWIRQPGGKGLEWIGRIYSSGSTNYNPSLKSRVTMSVDTSKNQFSLKLSSVTAADTAVYFCARDREDYYYYGMDVWGQGTTVTVSS VL: DIQMTQSPSSLSASVGDRVTITCQASHDISNYLNWYQQKPGKAPKLLIYAASNLETGVPSRFSGSGSGTDFSFTISSLQPEDIATYYCQQYDHLPLTFGGGTKVEIK"
  obsValue: 5
- binder: "75110_14N19A (antibody, V domains shown, Tested as non-clonal AlivaMab Mouse Kappa hybridoma supernatant (detected with anti-mouse Fc gamma and anti-human kappa)) VH: QVQLQESGPGLVKPSETLSLTCTVSGGSISRYYWSWIRQPAGKGLEWIGRICTSENPNYNPALKSRVTMSVDTSKNQFSLKLSSVTAADTAVYYCARELERLNYYGMDVWGQGTTVTVSS VL: DIQMTQFPSSLSASVGDRVTITCQASQDISNYLNWYQQKPGKAPKLLIYDASNLESGVPSRFSGRGSGTDFTFTISSLQPEDFATFYCQQYDTLPITFGQGTRLEIK"
  obsValue: 14.9
- binder: "75110_14I16A (antibody, V domains shown, Tested as non-clonal AlivaMab Mouse Kappa hybridoma supernatant (detected with anti-mouse Fc gamma and anti-human kappa); also called 75110_14116A) VH: QVQLQESGPGLVKPSETLSLTCTVSNGSISSYYWSWIRQSAGKGLEWIGRIYTSGSTNYNPSLKSRVTMLVDTSKNQFSLKLSSVTAADTAVYYCARDREDYYYYGMDVWGQGTTVTVSS VL: DIQMTQSPSSLSASVGDRVTITCQASHDISNYLNWYQQKPGKAPKLLLYYASNLETGVPSRFSGSGSGTDFTFTITSLQPEDIGTYSCQQYDNLPLTFGGGTKVEIK"
  obsValue: 2.1
- binder: "75110_06E14A (antibody, V domains shown, Tested as non-clonal AlivaMab Mouse Kappa hybridoma supernatant (detected with anti-mouse Fc gamma and anti-human kappa)) VH: QVQLQESGPGLVKPSETLSLTCTVSGGSISNYFWSWIRQPAGKGLEWIGRIYSSGNTNYNPSLKSRVTMSVDTSKNQFSLKLSSVTAADTAVYYCARDREDYYYYGMDVWGQGTTVTVSS VL: DIQMTQSPSSLSASVGDRVTITCQASQDISNYLNWYQQKPGKAPKLLIYGASILETGVPSRFTGSGSGTDFTFTISSLQPEDIATYYCQQYDSLPITFGQGTRLEIK"
  obsValue: 9.8
- binder: "75110_08K12A (antibody, V domains shown, Tested as non-clonal AlivaMab Mouse Kappa hybridoma supernatant (detected with anti-mouse Fc gamma and anti-human kappa)) VH: EVQLVESGGGLVQPGGSLRLSCAASGFTFSSYDMHWVRQATGKGLEWVSTIGTAGDTYYPGSVKGRFTISRENAENSLYLQMNSLRAGDTALYYCARGDYYYYGMDVWGQGTTVTVSS VL: EIVLTQSPGTLSLSPGERATLSCRASQSVSSTYLAWYQQKPGQAPRLLIYGASNRATGIPDRFSGSGSGTDFTLTISRLEPEDFAVYYCQQFGTSPFTFGPGTKVDIK"
  obsValue: 4.7
- binder: "75110_10O16A (antibody, V domains shown, Tested as non-clonal AlivaMab Mouse Kappa hybridoma supernatant (detected with anti-mouse Fc gamma and anti-human kappa); also called 75110_10016A) VH: EVQLVESGGGLVQPGGSLRLSCAASGFTFSNSDMHWVRQATGKGLEWVSTIGTAGDTYYPGSVKGRFTISRENAKNSLYLQMNSLRAGDTAVYYCARGGLYYYGMDVWGQGTTVTVSS VL: ENVLTQSPGTLSLSPGERATLSCRASQSVSSSYLAWYQQKPGQAPRLLIYGASSRATGIPDRFSGSGSGTDFTLTISRLEPEDFAVYYCHQFGSSPFTFGPGTKVDIK"
  obsValue: 2.4
- binder: "75110_08F20A (antibody, V domains shown, Tested as non-clonal AlivaMab Mouse Kappa hybridoma supernatant (detected with anti-mouse Fc gamma and anti-human kappa)) VH: QVQLQESGPGLVKPSETLSLTCSVSGGSISTYYWSWIRQPAGKGLEWIGRICTTENTNYNPSLKSRVTMSIDSSKNQFSLKLSSVTAADTAVYYCARDLERLNYYGMDVWGQGATVTVSS VL: DIQMTQSPSSLSASVGDRVTITCQASQDISKYLNWYQQKPGIAPKLLIYDASNLETGVPSRFSGSGSGTDFTFTISSLQPEDFATYYCQQYDSLPITFGQGTRLEIK"
  obsValue: 3.1
- binder: "75110_07J02A (antibody, V domains shown, Tested as non-clonal AlivaMab Mouse Kappa hybridoma supernatant (detected with anti-mouse Fc gamma and anti-human kappa)) VH: EVQLVESGGGLVQPGGSLRLSCAASGFTFSSYWMSWVRQAPGKGLEWVANIKEDGSEKYYVDSVKGRFTISRDNAKNSLYLQMNSLRAEDTAVYYCARDGSYSGYGMDVWGQGTTVTVSS VL: AIQMTQSPSSLSASVGDRVTITCRASQGIRNDLGWYQQKPGKAPKLLIYAASSLQSGVPSRFSGRGSGTDFALTISSLQPEDFATYYCLLDYNYPYTFGQGTRLEIK"
  obsValue: 2.3

Write down SKW3 WT vs KO ratio, anti-mFc-647 measured for item 75110_06G04A (antibody, V domains shown, Tested as non-clonal AlivaMab Mouse Kappa hybridoma supernatant (detected with anti-mouse Fc gamma and anti-human kappa)) VH: QVQLLESGPGLVKPSETLSLTCTVSGGSISSYYWSWIRQPAGKGLEWIGRIYISGSTNYNPSLKSRVTMSIDTSENQFSLNLSSVTAADTAVYYCARELERPYYYGMDVWGQGTTVTVSS VL: DIQMTQSPSSLSASVGDRVTITCQASQDISNYLNWYQQKPGKAPKLLIYNASTLETGVPSRFSGSGSGTDFTFTISSLQPEDIATYYCQQYDNLPLTFGGGTKVEFK 9.3

State, in one line, measured SKW3 WT vs KO ratio, anti-mFc-647 of 75110_14P08A (antibody, V domains shown, Tested as non-clonal AlivaMab Mouse Kappa hybridoma supernatant (detected with anti-mouse Fc gamma and anti-human kappa)) VH: QVQLQESGPGLVKSSETLSLTCTDSGDSIRSYYWNWIRQPAGKGLEWIGRIYASGSTNYNPSLKSRVIMSADTSKNRFSLKLSSVTAADTAVYYCARDGGVGDSLDYWGQGTLVTVSS VL: DIVMTQTPLSLPVTPGEPASISCRSSQSLLDSDDGNTYLDWYLQKPGQSPQLLIYTLSYRASGVPDRFSGSGSGTDFTLKISRVEAEDVGVYYCMQRIEFPFTFGPGTKVDIK 6.7

Sourced from patent US20220112288A1
